Molecular target: ATP-40-1 RNA (40-nucleotide ATP aptamer)
Assay: equilibrium gel filtration (solution Kd)
Format: binding
Conditions: Mg+2 concentration raised from 5 to 20 mM; method not stated; read-out: Kd
measurementName: Kd (µM)
Give the value, in units of µM, as a plain number.

Query: Answer with reported Kd of `Nc1ncnc2c1ncn2[C@@H]1O[C@H](COP(=O)(O)OP(=O)(O)OP(=O)(O)O)[C@@H](O)[C@H]1O`
Result: 2

---

Target: ATP-40-1 RNA variant, base pair U18-A33 changed to C-G
Experiment: Kd of ATP aptamer variant
Settings: further decrease after raising Mg+2 to 20 mM
measurementName: Kd (nM)
Give the value, in units of nM, as a plain number.

Query: Answer with reported Kd of Nc1ncnc2c1ncn2[C@@H]1O[C@H](COP(=O)(O)OP(=O)(O)OP(=O)(O)O)[C@@H](O)[C@H]1O [ATP]
Result: 700

---

Biological target: ATP-binding RNA clone 19 (C8-ATP series, eighth cycle RNA population)
Assay: binding of individual eighth-cycle clones to ATP-agarose
Settings: read-out: dissociation constant (Kd)
pKd: −log10 of the molar value.
measurementName: pKd

Query: Answer with reported pKd of `Nc1ncnc2c1ncn2[C@@H]1O[C@H](COP(=O)(O)OP(=O)(O)OP(=O)(O)O)[C@@H](O)[C@H]1O`
Result: > 4.30

---

Target: ATP-binding RNA clone 8 (C8-ATP series, eighth cycle RNA population)
Experiment: binding of individual eighth-cycle clones to ATP-agarose
Details: read-out: dissociation constant (Kd)
measurementName: Kd

Query: Answer with reported Kd of `Nc1ncnc2c1ncn2[C@@H]1O[C@H](COP(=O)(O)OP(=O)(O)OP(=O)(O)O)[C@@H](O)[C@H]1O`
Result: < 50 µM

---

Entries and their pKd
Target: ATP-40-1 RNA (40-nucleotide ATP aptamer)
Assay: equilibrium gel filtration (solution Kd)
Type: binding
Settings: equilibrium gel filtration; 5 mM Mg; read-out: Kd (solution)
pKd: −log10 of the molar value.

compound	measurementName	result
Nc1ncnc2c1ncn2[C@@H]1O[C@H](CO)[C@@H](O)[C@H]1O [adenosine]	pKd	5.10 to 5.30

# next compound below
Query: Answer with reported pKd of Nc1ncnc2c1ncn2[C@@H]1O[C@H](COP(=O)(O)OP(=O)(O)OP(=O)(O)O)[C@@H](O)[C@H]1O [ATP]
Result: 5.10 to 5.22

---

Target: ATP-binding RNA clone 3 (C8-ATP-3, full-length 164-nucleotide RNA)
Assay: binding of individual eighth-cycle clones to ATP-agarose
Settings: read-out: dissociation constant (Kd)
measurementName: Kd

Query: Answer with reported Kd of Nc1ncnc2c1ncn2[C@@H]1O[C@H](COP(=O)(O)OP(=O)(O)OP(=O)(O)O)[C@@H](O)[C@H]1O [ATP]
Result: < 50 µM
